test system: murine neural precursor cells (neurosphere cultures); assay: HTS of LOPAC library against secondary neurosphere cultures, MTT proliferation assay at 3 μM, day 7 (z score, P value); type: cell-based, mouse; conditions: LOPAC library screen, 3 μM, MTT, secondary neurosphere cultures, day 7
Counter-ions that a name gives are not always drawn.
Entries and their Z Score
property_name: Z Score

>>> measured_number("CC1=C(/C=C/C(C)=C/C=C/C(C)=C/C(=O)Nc2ccc(O)cc2)C(C)(C)CCC1 [Fenretinide (11), Retinoic acid p-hydroxyanilide]")
"−6.013"
>>> measured_number("Oc1c2ccccc2c2c3c(cccc13)N=N2 [SP600125]")
"−1.986"
>>> measured_number("CC(C)(C)NCC(O)c1ccccc1Cl (centres unmarked) [Tulobuterol hydrochloride]")
"−1.767"
>>> measured_number("C=C[C@@]1(C)CC(=O)[C@]2(O)[C@@]3(C)[C@@H](O)CCC(C)(C)[C@@H]3[C@H](O)[C@H](OC(C)=O)[C@@]2(C)O1 [Forskolin]")
"−1.331"
>>> measured_number("C=C[C@H]1C[N@@]2CC[C@H]1C[C@@H]2[C@@H](O)c1ccnc2ccc(OC)cc12 [Quinidine sulfate]")
"−1.93"
